Procedure Details: Kinematic viscosity of surfactant base formulation with added agent, calibrated Cannon viscometers at 40° C.
Format: physicochemical
Measurement Context: 2% agent in base formulation
Counter-ions that a name gives are not always drawn.
Measured Endpoint: Kinematic viscosity at 40 C. [cSt] 2% oil (cSt)

{"columns": ["Compound", "Readout Unit", "Endpoint Value"],
 "data": [
  ["CC(CC=O)CCCC(C)(C)O (stereo not shown) [Hydroxycitronellal]", "cSt", 310.8],
  ["C=CC(C)(CCC=C(C)C)OC(=O)C(C)C (stereo not shown) [Linalyl Iso Butyrate]", "cSt", 223.4],
  ["CC(C)=CCC/C(C)=C/COC(=O)Cc1ccccc1 [Geranyl Phenyl Acetate]", "cSt", 224.0],
  ["CC(C)CC=C(C=O)C(C)C", "cSt", 332.3],
  ["CC(C)CCOC(=O)c1ccccc1O [Isoamyl Salicylate]", "cSt", 460.3],
  ["CCC(CC(C)CC)=NO (stereo not shown)", "cSt", 246.3],
  ["CC1=CC=C(C(C)C)CC1", "cSt", 324.4],
  ["COC(C)(C)C1CC=C(C)CC1 (stereo not shown)", "cSt", 552.2],
  ["CCCCCCCCCCCCCCCC", "cSt", 21.1],
  ["CCCCCC(=O)OCC(C)C [Isobutyl Hexanoate]", "cSt", 390.0],
  ["CC(=O)CCc1ccc(O)cc1", "cSt", 151.9],
  ["CCOC(=O)CC(O)(CC(=O)OCC)C(=O)OCC [Triethyl Citrate]", "cSt", 269.4],
  ["CC(C)COC(=O)c1ccccc1O [Iso Butyl Salicylate]", "cSt", 408.7],
  ["CC(=O)OCCC(C)CCCC(C)C (stereo not shown) [3,7-Dimethyloctyl Acetate]", "cSt", 445.7],
  ["CC12CCC(CC1)C(C)(C)O2", "cSt", 527.3],
  ["C=C(C)[C@H]1CC=C(C)CC1 [Dipentene]", "cSt", 307.6],
  ["CCCCCCC1C(=O)CCC1C(=O)OC (stereo not shown) [Dihyro Iso Jasmonate]", "cSt", 334.9],
  ["CCC(=O)O[C@@H]1C[C@H]2CC[C@]1(C)C2(C)C (racemic) [Iso Bornyl Propionate]", "cSt", 463.1],
  ["CC12CCC(CC1=O)C2(C)C (stereo not shown)", "cSt", 365.8],
  ["CCCCCC1(C)CCC(C)(C)C1=O (stereo not shown)", "cSt", 260.2],
  ["CC(=O)OCCC(C)CCC=C(C)C (stereo not shown) [Citronellyl Acetate]", "cSt", 362.7],
  ["CCC(=O)OC1CC2CC1C1CC=CC21 (stereo not shown)", "cSt", 404.2]
]}
